The reported measurements were obtained from patent US20250388553A1.

Reported pIC50 values for the following compounds.
SYSTEM TESTED: PI3Kδ (p1106/p85a) Recombinant Human Protein (Homo sapiens (Human))
Sequence (O00329 whole entry): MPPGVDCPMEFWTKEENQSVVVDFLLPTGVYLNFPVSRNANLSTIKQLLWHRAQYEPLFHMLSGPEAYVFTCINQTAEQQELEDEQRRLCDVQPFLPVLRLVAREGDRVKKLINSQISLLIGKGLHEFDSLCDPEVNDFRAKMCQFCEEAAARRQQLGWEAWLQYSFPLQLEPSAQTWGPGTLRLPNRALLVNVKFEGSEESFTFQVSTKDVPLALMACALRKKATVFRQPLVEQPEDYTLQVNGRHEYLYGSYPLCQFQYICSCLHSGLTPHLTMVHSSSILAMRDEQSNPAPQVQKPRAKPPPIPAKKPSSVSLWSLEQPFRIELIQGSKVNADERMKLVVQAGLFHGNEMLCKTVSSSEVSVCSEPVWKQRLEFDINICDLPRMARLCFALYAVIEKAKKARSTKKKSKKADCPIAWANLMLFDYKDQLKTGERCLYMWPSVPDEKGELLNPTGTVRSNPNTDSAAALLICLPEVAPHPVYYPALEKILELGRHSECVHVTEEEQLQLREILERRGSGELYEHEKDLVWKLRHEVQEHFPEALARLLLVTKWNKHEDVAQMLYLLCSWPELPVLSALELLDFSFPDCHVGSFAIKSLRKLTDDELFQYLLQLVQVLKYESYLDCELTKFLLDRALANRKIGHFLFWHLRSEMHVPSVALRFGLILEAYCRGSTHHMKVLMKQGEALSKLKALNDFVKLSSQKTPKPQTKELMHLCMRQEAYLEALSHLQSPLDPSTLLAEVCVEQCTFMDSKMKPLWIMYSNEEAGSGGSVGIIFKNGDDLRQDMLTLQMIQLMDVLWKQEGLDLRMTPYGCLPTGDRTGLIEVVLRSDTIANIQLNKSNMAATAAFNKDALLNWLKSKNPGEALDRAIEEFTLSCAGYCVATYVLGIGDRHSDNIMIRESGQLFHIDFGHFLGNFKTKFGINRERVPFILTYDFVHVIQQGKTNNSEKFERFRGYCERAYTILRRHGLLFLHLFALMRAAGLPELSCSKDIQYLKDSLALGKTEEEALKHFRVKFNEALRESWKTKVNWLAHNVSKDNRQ
Sequence (P27986 whole entry partner): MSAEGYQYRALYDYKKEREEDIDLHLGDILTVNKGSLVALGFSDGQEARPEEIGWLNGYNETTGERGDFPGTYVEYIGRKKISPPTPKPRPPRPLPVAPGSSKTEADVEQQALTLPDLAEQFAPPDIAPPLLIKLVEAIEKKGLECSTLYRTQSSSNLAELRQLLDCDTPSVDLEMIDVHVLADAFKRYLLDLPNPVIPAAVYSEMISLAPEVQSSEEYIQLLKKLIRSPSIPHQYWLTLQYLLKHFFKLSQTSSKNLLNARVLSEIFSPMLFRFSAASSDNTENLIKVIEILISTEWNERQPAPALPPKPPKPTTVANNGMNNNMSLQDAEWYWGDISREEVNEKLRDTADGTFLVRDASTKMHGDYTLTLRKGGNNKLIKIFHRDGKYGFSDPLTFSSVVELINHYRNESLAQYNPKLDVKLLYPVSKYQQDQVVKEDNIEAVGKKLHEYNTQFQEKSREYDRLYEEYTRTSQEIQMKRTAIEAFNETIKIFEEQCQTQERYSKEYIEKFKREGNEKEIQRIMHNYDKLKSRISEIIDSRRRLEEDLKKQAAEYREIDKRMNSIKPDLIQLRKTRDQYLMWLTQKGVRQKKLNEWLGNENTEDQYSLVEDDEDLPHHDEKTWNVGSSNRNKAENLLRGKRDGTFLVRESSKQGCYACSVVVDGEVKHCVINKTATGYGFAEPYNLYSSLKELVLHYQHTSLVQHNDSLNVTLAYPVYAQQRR
ASSAY INFO: PI3Kδ scintillation proximity assay
Assay type: biochemical
TEST CONDITIONS: Table A3; scintillation proximity assay, recombinant human PI3Kδ
pIC50: −log10 of the molar value. Counter-ions that a name gives are not always drawn.

COMPOUND: CC(=O)NCC(O)(c1ccc(C)c(-c2cnc(N)c(-c3cnn(CC(F)(F)F)c3)n2)c1)C(F)(F)F (stereo not drawn) [Example 104, trifluoroacetate]
pIC50: > 7.00

COMPOUND: CNC(=O)C(O)(c1ccc(C)c(-c2cnc(N)c(-n3cncn3)n2)c1)C(F)(F)F (stereo not drawn) [Example 94, trifluoroacetate]
pIC50: > 7.00

COMPOUND: Cc1ccc(C(O)(C(N)=O)C(F)(F)F)cc1-c1cnc(N)c(-c2ccc(B(O)O)cc2)n1 (stereo not drawn)
pIC50: > 7.00

COMPOUND: Cc1ccc(C(O)(C(N)=O)C(F)(F)F)cc1-c1cnc(N)c(-c2ccnc(CO)c2)n1 (stereo not drawn) [Example 85, bistrifluoroacetate]
pIC50: > 7.00

COMPOUND: Cc1ccc(C(O)(C(N)=O)C(F)F)cc1-c1cnc(N)c(-c2cnn(C)n2)n1 (stereo not drawn)
pIC50: > 7.00

COMPOUND: Cc1ccc(C(O)(C(N)=O)C(F)(F)F)cc1-c1cnc(N)c(C(=O)Nc2ccnn2C)n1 (stereo not drawn) [Example 106, trifluoroacetate]
pIC50: > 7.00

COMPOUND: CNC(=O)C(O)(c1ccc(C)c(-c2cnc(N)c(-c3cnn(C)c3)n2)c1)C(F)(F)F (stereo not drawn)
pIC50: 6.30 to 7.00

COMPOUND: Cc1ccc(C(O)(C(N)=O)C(F)(F)F)cc1-c1cnc(N)c(-c2ccc(CC#N)cc2)n1 (stereo not drawn) [Example 87, trifluoroacetate]
pIC50: > 7.00

COMPOUND: Cc1ccc(C(O)(C(=O)N(C)C)C(F)(F)F)cc1-c1cnc(N)c(-n2cncn2)n1 (stereo not drawn) [Example 95, trifluoroacetate]
pIC50: 6.30 to 7.00

COMPOUND: Cc1ccc(C(O)(C(N)=O)C(F)(F)F)cc1-c1cnc(N)c(-c2cnn(CC3CC3)c2)n1 (stereo not drawn) [Example 86, trifluoroacetate]
pIC50: > 7.00

COMPOUND: Cc1ccc(C(O)(C(N)=O)C(F)(F)F)cc1-c1cnc(N)c(-c2ccnn2C)n1 (stereo not drawn) [Example 69, trifluoroacetate]
pIC50: > 7.00

COMPOUND: Cc1ccc(C(O)(CNC=O)C(F)(F)F)cc1-c1cnc(N)c(-c2cn[nH]c2)n1 (stereo not drawn) [Example 103, trifluoroacetate]
pIC50: 6.30 to 7.00

COMPOUND: Cc1ccc(C(O)(C(N)=O)C(F)(F)F)cc1-c1cnc(N)c(-c2cnn(C3CCOCC3)c2)n1 (stereo not drawn) [Example 77, trifluoroacetate]
pIC50: > 7.00

COMPOUND: Cc1ccc(C(O)(C(N)=O)C(F)(F)F)cc1-c1cnc(N)c(-c2cnn(C)n2)n1 (stereo not drawn) [Example 73, trifluoroacetate]
pIC50: > 7.00

COMPOUND: Cc1ccc(C(O)(C(N)=O)C(F)(F)F)cc1-c1cnc(N)c(-c2cnnn2C)n1 (stereo not drawn) [Example 74, trifluoroacetate]
pIC50: > 7.00

COMPOUND: Cc1ccc(C(O)(C(N)=O)C(F)(F)F)cc1-c1cnc(N)c(-c2ccc(C3CC3)cc2)n1 (stereo not drawn) [Example 92, trifluoroacetate]
pIC50: 6.30 to 7.00

COMPOUND: Cc1ccc(C(O)(C(N)=O)C(F)(F)F)cc1-c1cnc(N)c(-c2ccc(C(F)(F)F)nc2)n1 (stereo not drawn) [Example 83, bistrifluoroacetate]
pIC50: > 7.00

COMPOUND: Cc1ccc(C(O)(C(N)=O)C(F)(F)F)cc1-c1cnc(N)c(-c2cnn(C(C)(C)C#N)c2)n1 (stereo not drawn) [Example 76, trifluoroacetate]
pIC50: > 7.00

COMPOUND: Cc1ccc(C(O)(C(N)=O)C(F)(F)F)cc1-c1cnc(N)c(-c2ccc(CO)cc2)n1 (stereo not drawn) [Example 88, trifluoroacetate]
pIC50: > 7.00

COMPOUND: Cc1ccc(C(O)(C(N)=O)C(F)(F)F)cc1-c1cnc(N)c(-c2cnn(C)c2)n1 (stereo not drawn) [Example 71, trifluoroacetate]
pIC50: > 7.00

COMPOUND: Cc1ccc(-c2nc(-c3cc(C(O)(C(N)=O)C(F)(F)F)ccc3C)cnc2N)cn1 (stereo not drawn) [Example 82, bistrifluoroacetate]
pIC50: > 7.00
